Attribution: paper PMC8438848

# STUDY_SYSTEM: HLA-B27:05 (Homo sapiens, UniProt P01889, D138H/D201E/E176V/E204Q/G107R/H137Y/K202T/N104T/N87E/Q56L/Q94K/R106L/R155S/R180L/S101D/S121N/S48T/Y140D/Y33H/Y91C)
# ASSAY_COMMENT: IC50 in vitro measurement, peptide exchange assay with fluorescence anisotropy
# Assay type: binding
Ends that are not written are not given here.
Provide the recorded pIC50 for the entries that follow.
Give bare numbers, as −log10 of the molar value.

GRIAFFLKY [SYTL4^S363F] ... 6.67

Prompt line: Determine from records and report pIC50 for GRIAFSLKY [SYTL4^WT]
Response line: 7.01
